This collection of values is drawn from PubChem BioAssay AID1259407.

- Test system: CCRIS mutagenicity, Ames/micronucleus/aberration tests
- assay-comment: CCRIS mutagenicity studies
- condition-parameters: Test System: AMES SALMONELLA TYPHIMURIUM; Strain/Indicator: TA1538; Metabolic Activation: NONE; Method: STANDARD PLATE
Calls of active or inactive are those of the source. The rule behind the calls is not given here.
Outcomes: active, inactive

{"compound": "C#CCOCCn1cc[n+](C)c1/C=N/O", "class-assignment": "inactive"}
{"compound": "Nc1c(Br)cc([N+](=O)[O-])cc1[N+](=O)[O-]", "class-assignment": "active"}
{"compound": "Fc1ccccc1-c1ccccc1", "class-assignment": "inactive"}
{"compound": "O=C1c2c(O)ccc(O)c2C(=O)c2c(NCCNCCO)ccc(NCCNCCO)c21", "class-assignment": "active"}
{"compound": "O=NO", "class-assignment": "inactive"}
{"compound": "C[C@H](CCC(=O)NCCS(=O)(=O)O)[C@H]1CC[C@H]2[C@@H]3C[C@H](O)[C@@H]4C[C@H](O)CC[C@]4(C)[C@H]3CC[C@]12C", "class-assignment": "inactive"}
{"compound": "CC(C)=CCC1=C(O)c2ccccc2C(=O)C1=O", "class-assignment": "inactive"}
{"compound": "O=[N+]([O-])c1ccc(NO)cc1", "class-assignment": "active"}
{"compound": "C[n+]1cccc(C(=O)[O-])c1", "class-assignment": "inactive"}
{"compound": "O=c1cn[nH]c(=O)[nH]1", "class-assignment": "inactive"}
{"compound": "CCCCCCCCCC/C=C/C1CC(=O)OC1=O (configuration not stated)", "class-assignment": "inactive"}
{"compound": "ONc1ccc2ccccc2c1", "class-assignment": "active"}
{"compound": "CCN(CC)c1ccc2cc(-c3nc4ccccc4n3C)c(=O)oc2c1", "class-assignment": "inactive"}
{"compound": "CC(=O)[CH-]C(=O)c1ccccc1.CC(=O)[CH-]C(=O)c1ccccc1.CC[O-].CC[O-].[Ti+4]", "class-assignment": "inactive"}
{"compound": "CCC1CCC(CCC(=O)[O-])C1.CCC1CCC(CCC(=O)[O-])CC1.[Cu+2] (configuration not stated)", "class-assignment": "inactive"}
{"compound": "Nc1nc2c(ncn2[C@@H]2C=C[C@H](CO)C2)c(=O)[nH]1", "class-assignment": "inactive"}
{"compound": "NC(=O)c1ccc(N)cc1", "class-assignment": "inactive"}
{"compound": "C=C(C)C(=O)OCCOCCOC(=O)C(=C)C", "class-assignment": "inactive"}
{"compound": "CCN(CC)c1ccc(N=Nc2ccc(N=Nc3c(S(=O)(=O)O)cc4ccc(N)cc4c3O)c(OC)c2)cc1", "class-assignment": "inactive"}
{"compound": "Cc1cccn2c(=O)c(-c3nnn[nH]3)cnc12", "class-assignment": "inactive"}
{"compound": "CCN(C)C(=O)Oc1ccc2c(c1)C1(C)CCN(C)C1N2C (configuration not stated)", "class-assignment": "inactive"}
{"compound": "O=CC(O)C(O)C(O)C(O)COC1OC(COC2OC(CO)C(O)C(O)C2O)C(O)C(O)C1O (configuration not stated)", "class-assignment": "inactive"}
{"compound": "C=C(C)C(=O)OCC", "class-assignment": "inactive"}
{"compound": "O=[N+]([O-])/C(Br)=C\\c1ccccc1", "class-assignment": "inactive"}
{"compound": "C[Si]1(C)O[Si](C)(C)O[Si](C)(C)O[Si](C)(C)O1", "class-assignment": "inactive"}
{"compound": "COc1cc2c(c(OC)c1OC)-c1ccc(OC)c(=O)cc1[C@@H](NC(C)=O)CC2", "class-assignment": "inactive"}
{"compound": "O=S(O)S(=O)(=O)O", "class-assignment": "inactive"}
{"compound": "O=C1NC(=O)C(c2ccccc2)(c2ccc(O)cc2)N1 (configuration not stated)", "class-assignment": "inactive"}
{"compound": "O=C(O)/C=C/c1ccc(O)c(O)c1", "class-assignment": "inactive"}
{"compound": "Nc1ccc(-c2ccc(N)c(Cl)c2)cc1Cl", "class-assignment": "active"}
{"compound": "C/C=C(/C(=C/C)c1ccc(O)cc1)c1ccc(O)cc1", "class-assignment": "inactive"}
{"compound": "O=C1c2cccc(O)c2C(=O)c2c(O)cc(CO)cc21", "class-assignment": "active"}
{"compound": "C1O[C@@H]1[C@@H]1CO1", "class-assignment": "inactive"}
{"compound": "COc1cc(O)c2c(=O)c(O)c(-c3ccc(O)c(O)c3)oc2c1", "class-assignment": "inactive"}
{"compound": "CC(C)N(C(=O)SC/C(Cl)=C/Cl)C(C)C", "class-assignment": "inactive"}
{"compound": "Nc1ccc(N=Nc2ccc(N)cc2)cc1", "class-assignment": "inactive"}
{"compound": "Nc1nc2cc(Cl)c(Cl)cc2s1", "class-assignment": "inactive"}

----------
- Tested on: CCRIS mutagenicity, Ames/micronucleus/aberration tests
- assay-comment: CCRIS mutagenicity studies
- condition-parameters: Test System: AMES SALMONELLA TYPHIMURIUM; Strain/Indicator: TA100; Metabolic Activation: NONE; Method: STANDARD PLATE
Active and inactive are the calls of the source. How the calls were made is not given here. Where a SMILES comes first, the peptide text is derived from it.
Outcome codes: label 1 (active), label 0 (inactive)

{"compound": "CC(C(=O)O)c1ccc(Oc2nccs2)cc1 (stereo not drawn)", "class-assignment": "label 0"}
{"compound": "CC1CCC(C(C)C)C(=O)C1 (stereo not drawn)", "class-assignment": "label 0"}
{"compound": "OCc1ccco1", "class-assignment": "label 0"}
{"compound": "O=C(NCc1ccccc1)C1CO1 (stereo not drawn)", "class-assignment": "label 1"}
{"compound": "Cc1ccc(C(C)C)cc1O", "class-assignment": "label 0"}
{"compound": "CC(C)(C)c1cc(-c2ccccc2)ccc1NO", "class-assignment": "label 1"}
{"compound": "O=[N+]([O-])c1cc([N+](=O)[O-])c2ccc3cccc4ccc1c2c43", "class-assignment": "label 1"}
{"compound": "CCN(C)C(=O)Oc1ccc2c(c1)C1(C)CCN(C)C1N2C (stereo not drawn)", "class-assignment": "label 0"}
{"compound": "O=[N+]([O-])c1c2ccccc2cc2ccccc12", "class-assignment": "label 0"}
{"compound": "Cc1cc2ccccc2c2ccc3ccccc3c12", "class-assignment": "label 0"}
{"compound": "Cc1ccc(S(=O)(=O)N2C3c4ccccc4-c4ccccc4C32)cc1 (stereo not drawn)", "class-assignment": "label 1"}
{"compound": "c1ccc(Nc2ccc(Nc3ccccc3)cc2)cc1", "class-assignment": "label 0"}
{"compound": "O=C1OCC(CCl)=C1Br", "class-assignment": "label 1"}
{"compound": "O=[N+]([O-])c1ccc2c3c(cccc13)CC2", "class-assignment": "label 1"}
{"compound": "CC(=O)O[C@H]1CC[C@]2(C)[C@H]3CC[C@]4(C)[C@@H]([C@H](C)CCCC(C)C)CC[C@H]4[C@@H]3C[C@@H]3N(N4C(=O)c5ccccc5C4=O)[C@@]32C1 (stereo partly drawn)", "class-assignment": "label 1"}
{"compound": "O=C1NC(=O)C(c2ccccc2)(c2ccc(O)cc2)N1 (stereo not drawn)", "class-assignment": "label 0"}
{"compound": "NCCCC[C@H](NC(=O)[C@H](Cc1c[nH]c2ccccc12)NC(=O)[C@@H](N)CCCCN)C(=O)O (H-Lys-Trp-Lys-OH)", "class-assignment": "label 0"}
{"compound": "O=[N+]([O-])c1cc2ccccc2c2ccccc12", "class-assignment": "label 1"}
{"compound": "C[Si]1(C)O[Si](C)(C)O[Si](C)(C)O[Si](C)(C)O1", "class-assignment": "label 0"}
{"compound": "Cc1c(/C=N/OCc2ccccc2)c2cc([N+](=O)[O-])ccc2n1Cc1cccc([N+](=O)[O-])c1", "class-assignment": "label 0"}
{"compound": "CC(C)COP(=S)(OCC(C)C)SCCl", "class-assignment": "label 0"}
{"compound": "CCCCC[C@@](C)(O)/C=C/[C@H]1[C@H](O)CC(=O)[C@@H]1C/C=C\\CCCC(=O)O", "class-assignment": "label 0"}
{"compound": "Cc1c2c(cc3ccccc13)-c1ccccc1C1NC21 (stereo not drawn)", "class-assignment": "label 1"}
{"compound": "ClCC1C(CCl)[C@@]2(Cl)C(Cl)=C(Cl)[C@]1(Cl)C2(Cl)Cl (stereo partly drawn)", "class-assignment": "label 0"}
{"compound": "O=CC1=CCCC2CC12C=O (stereo not drawn)", "class-assignment": "label 1"}
{"compound": "C[n+]1cccc(C(=O)[O-])c1", "class-assignment": "label 0"}
{"compound": "O=C(O)/C=C/c1ccc(O)c(O)c1", "class-assignment": "label 0"}
{"compound": "Nc1cc(S(=O)(=O)O)cc2cc(S(=O)(=O)O)c(N=Nc3ccccc3)c(O)c12", "class-assignment": "label 0"}
{"compound": "CC1(C)C(C(=O)OC(C#N)c2cccc(Oc3ccccc3)c2)C1(C)C (stereo not drawn)", "class-assignment": "label 0"}
{"compound": "Cc1cc2ccccc2c2ccc3c(c12)[C@@H]1O[C@@H]1[C@H](O)[C@H]3O", "class-assignment": "label 1"}
{"compound": "CCOS(C)(=O)=O", "class-assignment": "label 1"}
{"compound": "CCCCC(CC)COC(=O)CCCCC(=O)O (stereo not drawn)", "class-assignment": "label 0"}
{"compound": "O=c1c(O)c2c(c3c1ccc1c3cccn1O)O2", "class-assignment": "label 0"}
{"compound": "O=C1CCCN1c1ncc([N+](=O)[O-])s1", "class-assignment": "label 0"}
{"compound": "c1ccc2c(c1)ccc1c3c(ccc12)CCC3", "class-assignment": "label 0"}
{"compound": "[Cl][Pd-2]([Cl])([Cl])[Cl]", "class-assignment": "label 0"}
{"compound": "CC(=O)Nc1ccc(Oc2ccc(N)cc2)cc1", "class-assignment": "label 0"}
{"compound": "N#CC(Cl)(Cl)Cl", "class-assignment": "label 0"}
{"compound": "Cl/C=C/CCl", "class-assignment": "label 1"}
{"compound": "O=C(O)COc1ccc2ccccc2c1", "class-assignment": "label 0"}
{"compound": "CN(C)c1ccc(C(=N)c2ccc(N(C)C)cc2)cc1", "class-assignment": "label 0"}
{"compound": "CC1(C)CCCC(C)(C)N1[O]", "class-assignment": "label 0"}
{"compound": "Cc1ccco1", "class-assignment": "label 0"}
{"compound": "CCOC(=O)c1[nH]c2ccccc2c1N=Cc1ccc(C)cc1", "class-assignment": "label 0"}
{"compound": "O=[N+]([O-])c1ccc2ccc3ccc([N+](=O)[O-])cc3c2c1", "class-assignment": "label 1"}
{"compound": "CC1OC(OC2CC(O)(CO)Cc3c(O)c4c(c(O)c32)C(=O)c2ccccc2C4=O)C(I)C(O)C1O (stereo not drawn)", "class-assignment": "label 0"}
{"compound": "Cn1c(CC(=O)OCCCl)c(C(=O)O)c2ccccc21", "class-assignment": "label 0"}
{"compound": "CN(C)C(=S)S", "class-assignment": "label 1"}
